Data origin: patent US9540424B2

Experiment: Half-life of HSA and of SABA1-4 with or without HSA in mice (ELISA, WinNonlin)
Type: in vivo, Ncr nude female mice
Conditions: co-injected with HSA (3-4 molar excess), tail vein
Catalogue of PK (T½) Mice readings, one per entry.
quantity.measured: PK (T½) Mice (h)

molecule	value.reported
SABA4.1: HSA binding clone of SABA4 (protein, His6 tag) MGVSDVPRDLEMVAATPTSLLISWEDDSYYSRYYRITYGETGGNSPVQEFTVPSDLYTATISGLKPGVDYTITVYAVTYDVTDLIMHEPISINYRTEIDKPSQHHHHHH	4.6
SABA3.1: His-tagged SABA3 sequence (protein, His6 tag) MGVSDVPRDLEVVAATPTSLLISWSNDGPGLSYYRITYGETGGNSPVQEFTVPSSQTTATISGLKPGVDYTITVYAVSYYTKKAYSAGPISINYRTEIDKPSQHHHHHH	0.53
SABA5.1: His-tagged SABA5 sequence (protein, His6 tag) MGVSDVPRDLEVVAATPTSLLISWEDDSYYSRYYRITYGETGGNSPVQEFTVPSDLYTATISGLKPGVDYTITVYAVTYDVTDLIMHEPISINYRTEIDKPSQHHHHHH	4.6
